Test system: Staphylococcus aureus
test_method_notes: Antibacterial activity against Methicillin-Resistant Staphylococcus aureus subsp. aureus N315 after 24 hrs by two fold serial dilution method
Format: functional
measurement_conditions: N315, 24 h
Each entry below lists one item and its recorded MIC50 value.

cpd_smiles: c1ccc2c(c1)c1ccccc1n2CCCCCCn1ccnc1
system_tested: Staphylococcus aureus
u: µg/mL
relation_qualifier: =
MIC50: 8

cpd_smiles: c1ccc2c(c1)c1ccccc1n2CCCCn1c2ccccc2c2ccccc21
system_tested: Staphylococcus aureus
u: µg/mL
relation_qualifier: >
MIC50: 512

cpd_smiles: BrCc1ccc(Cn2c3ccccc3c3ccccc32)cc1
system_tested: Staphylococcus aureus
u: µg/mL
relation_qualifier: >
MIC50: 512

cpd_smiles: Clc1ccc(C[n+]2cnn(Cc3ccc(Cn4c5ccccc5c5ccccc54)cc3)c2)c(Cl)c1.[Cl-]
system_tested: Staphylococcus aureus
u: µg/mL
relation_qualifier: =
MIC50: 8

cpd_smiles: CCn1cc(C(=O)O)c(=O)c2cc(F)c(N3CCNCC3)cc21
system_tested: Staphylococcus aureus
u: µg/mL
relation_qualifier: =
MIC50: 1

cpd_smiles: c1ccc2c(c1)c1ccccc1n2Cc1ccc(Cn2ccnc2)cc1
system_tested: Staphylococcus aureus
u: µg/mL
relation_qualifier: =
MIC50: 8

====

Tested on: Staphylococcus aureus
test_method_notes: Antibacterial activity against Methicillin-Resistant Staphylococcus aureus subsp. aureus N315 after 24 hrs by two fold serial dilution method
Assay type: functional
measurement_conditions: N315, 24 h

cpd_smiles: c1ccc2c(c1)c1ccccc1n2CCCCn1ccnc1
system_tested: Staphylococcus aureus
MIC50: 4 µg/mL
//
cpd_smiles: c1ccc2c(c1)c1ccccc1n2CCCCn1cncn1
system_tested: Staphylococcus aureus
MIC50: > 512 µg/mL
//
cpd_smiles: c1ccc2c(c1)c1ccccc1n2CCCCCCn1cncn1
system_tested: Staphylococcus aureus
MIC50: 64 µg/mL
//
cpd_smiles: c1ccc2c(c1)c1ccccc1n2CCCCCCn1c2ccccc2c2ccccc21
system_tested: Staphylococcus aureus
MIC50: > 512 µg/mL
//
cpd_smiles: c1ccc2c(c1)c1ccccc1n2Cc1ccc(Cn2c3ccccc3c3ccccc32)cc1
system_tested: Staphylococcus aureus
MIC50: > 512 µg/mL
//
cpd_smiles: BrCCCCCCn1c2ccccc2c2ccccc21
system_tested: Staphylococcus aureus
MIC50: > 512 µg/mL
//
cpd_smiles: c1ccc2c(c1)c1ccccc1n2Cc1ccc(Cn2cncn2)cc1
system_tested: Staphylococcus aureus
MIC50: > 512 µg/mL
//
cpd_smiles: BrCCCCn1c2ccccc2c2ccccc21
system_tested: Staphylococcus aureus
MIC50: > 512 µg/mL
//
cpd_smiles: O=C(N[C@H](CO)[C@H](O)c1ccc([N+](=O)[O-])cc1)C(Cl)Cl
system_tested: Staphylococcus aureus
MIC50: 8 µg/mL
